target: 5-hydroxytryptamine receptor 1A (Homo sapiens, UniProt P08908); experiment: Displacement of [3H]-8-OH-DPAT from human 5-HT1A receptor expressed in CHOK1 cells after 30 mins by liquid scintillation counting analysis; assay type: cell-based, CHO-K1
Sequence (P08908 whole entry): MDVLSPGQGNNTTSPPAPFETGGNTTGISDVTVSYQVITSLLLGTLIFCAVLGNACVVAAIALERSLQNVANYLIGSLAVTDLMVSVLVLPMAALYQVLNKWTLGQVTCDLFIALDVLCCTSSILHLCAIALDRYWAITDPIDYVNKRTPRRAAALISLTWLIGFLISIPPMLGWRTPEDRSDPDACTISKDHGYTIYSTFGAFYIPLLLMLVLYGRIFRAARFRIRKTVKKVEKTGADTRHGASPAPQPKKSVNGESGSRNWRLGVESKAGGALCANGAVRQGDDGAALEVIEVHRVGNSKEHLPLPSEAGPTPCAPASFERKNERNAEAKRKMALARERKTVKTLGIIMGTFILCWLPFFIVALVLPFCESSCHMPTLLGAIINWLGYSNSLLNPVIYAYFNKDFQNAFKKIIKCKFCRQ
VALUE KIND: Ki (nM)
# value in nM; strip the unit string

Study these solved cases before continuing.
# STRUCTURE STRING, ASSAYED TARGET, VALUE KIND, ASSAY VALUE
records = [
    ("COc1ccc(Br)c(CC2CCN(CCc3ccc4c(c3)OCCO4)CC2)c1", "5-hydroxytryptamine receptor 1A (Homo sapiens, UniProt P08908)", "Ki", 0.36),
    ("COc1ccc(Br)c(CC2CCN(CCc3ccc(F)cc3)CC2)c1", "5-hydroxytryptamine receptor 1A (Homo sapiens, UniProt P08908)", "Ki", 1.04),
    ("COc1ccc(CCN2CCC(Cc3cc(OC)ccc3Br)CC2)cc1", "5-hydroxytryptamine receptor 1A (Homo sapiens, UniProt P08908)", "Ki", 0.81),
    ("COc1cccc(CCN2CCC(Cc3cc(OC)ccc3Br)CC2)c1", "5-hydroxytryptamine receptor 1A (Homo sapiens, UniProt P08908)", "Ki", 0.82),
    ("COc1ccc(Br)c(CC2CCN(CCc3ccccc3)CC2)c1", "5-hydroxytryptamine receptor 1A (Homo sapiens, UniProt P08908)", "Ki", 2.72),
]

# input for lookup
Input line: Provide only the value of recorded Ki for COc1ccc(Cl)c(CC2CCN(CCc3ccccc3)CC2)c1
Output line: 2.27

###

biological target: Sodium-dependent serotonin transporter (Homo sapiens, UniProt P31645); assay: Inhibition of human SERT expressed in CHO cell membranes assessed as reduction in [3H]serotonin uptake preincubated for 10 mins followed by [3H]serotonin addition measured after 20 mins by liquid scintillation counting method
Sequence (P31645 whole entry): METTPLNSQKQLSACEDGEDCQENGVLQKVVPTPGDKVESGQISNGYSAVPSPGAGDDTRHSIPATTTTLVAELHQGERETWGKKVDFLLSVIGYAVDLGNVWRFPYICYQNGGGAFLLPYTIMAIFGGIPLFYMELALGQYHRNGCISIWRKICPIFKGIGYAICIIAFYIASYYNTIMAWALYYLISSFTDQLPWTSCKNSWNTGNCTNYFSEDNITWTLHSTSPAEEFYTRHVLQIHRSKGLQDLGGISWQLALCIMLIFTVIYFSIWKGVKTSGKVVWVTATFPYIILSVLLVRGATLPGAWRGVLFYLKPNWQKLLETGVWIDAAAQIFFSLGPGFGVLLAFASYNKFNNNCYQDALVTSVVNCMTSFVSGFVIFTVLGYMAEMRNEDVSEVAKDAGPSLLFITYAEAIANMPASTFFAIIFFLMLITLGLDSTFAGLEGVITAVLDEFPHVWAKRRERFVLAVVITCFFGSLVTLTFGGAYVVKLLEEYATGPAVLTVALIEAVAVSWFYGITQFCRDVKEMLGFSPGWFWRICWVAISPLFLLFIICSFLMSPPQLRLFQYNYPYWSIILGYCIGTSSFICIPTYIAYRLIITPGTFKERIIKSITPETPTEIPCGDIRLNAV
VALUE KIND: IC50 (µM)
# value in µM; strip the unit string

Input line: Provide only the value of recorded IC50 for COCCOc1ccc(Br)c(CC2CCN(CCc3cc4c(cc3Cl)OCCO4)CC2)c1.Cl
Output line: 0.306

###

Target or system 5-hydroxytryptamine receptor 1A (Homo sapiens); recorded quantity pKi.
The read-out pKi is expressed as -log10 of concentration in moles per litre.

# STRUCTURE STRING, ASSAY VALUE
rows = [
    ("COc1ccc(Br)c(CC2CCN(CCc3ccc(Cl)cc3)CC2)c1", 8.87),
    ("COc1cccc(CC2CCN(CCc3ccccc3)CC2)c1", 7.53),
]

Input line: Identify measured pKi obtained with 5-hydroxytryptamine receptor 1A (Homo sapiens) for COc1ccc(F)c(CC2CCN(CCc3ccccc3)CC2)c1 .
Output line: 8.22

Input line: Identify measured pKi obtained with 5-hydroxytryptamine receptor 1A (Homo sapiens) for COc1ccc(Br)c(CC2CCN(CCc3ccccc3OC)CC2)c1 .
Output line: 8.52

Input line: Identify measured pKi obtained with 5-hydroxytryptamine receptor 1A (Homo sapiens) for COc1ccc(Br)c(CC2CCN(CCc3ccc4ccccc4c3)CC2)c1 .
Output line: 9.05

Input line: Identify measured pKi obtained with 5-hydroxytryptamine receptor 1A (Homo sapiens) for COc1ccc(CCN2CCC(Cc3cc(OC)ccc3Br)CC2)c(Cl)c1 .
Output line: 8.95

Input line: Identify measured pKi obtained with 5-hydroxytryptamine receptor 1A (Homo sapiens) for COc1ccc(Br)c(CC2CCN(CCc3ccc(C)cc3)CC2)c1 .
Output line: 8.85

Cited source: ChEMBL document CHEMBL3871287
